# assayed target: Human recombinant SIRT6 (Homo sapiens)
# Construct: six-histidine (His6); made in house; host or cells: Escherichia coli BL21
# assay details: SIRT6 enzymatic activity assay (fluorogenic de-myristoylation of histone H3 peptide-AMC, trypsin-coupled)
# Assay type: biochemical
# experimental parameters: Table 2; compound 20 uM; percentage of signal increase relative to control wells
# Procedure: Human recombinant SIRT6 (sequence identifier: CAG33481.1; GI:4814651) was expressed in large scale in Escherichia coli strain BL21 as a six-histidine-tagged protein, after transformation of the expression plasmid pET28-SIRT6. The SIRT6 enzyme was purified from the bacteria culture broth in a two-step strategy. The first purification step was carried out by cation exchange chromatography on a HiTrap CM-Sepharose column (GE Healthcare) using an FPLC system. […]
// values below are reported % activity 20 uM

compound	% activity 20 uM [%]
C=C(CC)Nc1ccc(-c2cc(C(=O)NCCCN3CCCC(C)C3)c3ccccc3n2)cc1 (centres unmarked) [compound 42]	61
O=C(Nc1ccc2nnc(C3CCC3)n2c1)C1CC1 [compound 52]	69
C=C1Oc2ccc(C)cc2-c2oc(NCCOC)c(-c3ccc(OCC)cc3)c21 [compound 29]	82
CCN1CCCC1CNC(=O)C1CCN(c2cc(C)nc3c(-c4ccc(Cl)cc4)c(C)nn23)CC1 (centres unmarked) [compound 22]	32
O=c1cc(O)c2sc3nc4c(cc3c2[nH]1)CCCCC4 [compound 15]	37

----------
# assayed target: Human recombinant SIRT6 (Homo sapiens, UniProt Q8N6T7)
# Construct: six-histidine (His6); made in house; host or cells: Escherichia coli BL21
# Sequence (Q8N6T7 whole entry): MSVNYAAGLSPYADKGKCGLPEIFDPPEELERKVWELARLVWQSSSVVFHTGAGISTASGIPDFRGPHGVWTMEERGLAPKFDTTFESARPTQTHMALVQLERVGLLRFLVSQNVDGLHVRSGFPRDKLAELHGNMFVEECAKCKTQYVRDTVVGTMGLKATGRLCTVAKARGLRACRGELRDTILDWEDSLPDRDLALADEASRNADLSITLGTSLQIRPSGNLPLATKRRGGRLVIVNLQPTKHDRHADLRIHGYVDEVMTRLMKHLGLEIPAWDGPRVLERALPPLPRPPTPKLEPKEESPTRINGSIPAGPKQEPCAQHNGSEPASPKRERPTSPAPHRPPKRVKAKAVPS
# assay details: SIRT6 enzymatic activity assay (fluorogenic de-myristoylation of histone H3 peptide-AMC, trypsin-coupled)
# Format: biochemical
# experimental parameters: Table 2; compound 20 uM; percentage of signal increase relative to control wells
Given measured % activity 20 uM, output 1 if it is greater than or equal to 40% and -1 if not.

molecule	assigned category
C=S(=C)(c1cc(Cl)ccc1Cl)n1c(/C=C/c2ccc(SC)cc2)nc2ccccc21 [compound 21]	-1
C=C1Cc2c(cccc2CC)C=C1C1=CCC(NC(=O)CCC(=O)NCCCN2CCC(C)CC2)=N1 [compound 37]	1
C=C(c1ccc(-c2nc3ccccc3n(CC(C)C)c2=O)cc1)N1CCN(c2ccccc2)CC1 [compound 46]	1
Cc1nc2sc(-c3nc4ccccc4[nH]3)c(N)c2c(C)c1Cl [compound 12]	-1
C=C(Nc1ccc(Cl)cc1)N1c2ccc(OCC)cc2C(C)=CC1(C)C [compound 2]	-1
COc1ccc(-c2nn3c(C)nnc3s2)cc1N [compound 17]	-1
Cc1ccnc(NC(c2ccc(C)cc2C)c2ccc3cccnc3c2O)c1 (stereo not drawn) [compound 6]	-1
Cc1nc(-c2cccc(C(F)(F)F)c2)c(N)c(N(C)C2CCN(C)CC2)n1 [compound 60]	1
Cn1c(-c2ccc3[nH]c(-c4ccc(N)cc4)nc3c2)nc2cc(N)ccc21 [compound 7]	1

----------
The entries below are paired with their reported % activity 20 uM.
# assayed target: Human recombinant SIRT6 (Homo sapiens, UniProt Q8N6T7)
# Construct: six-histidine (His6); made in house; host or cells: Escherichia coli BL21
# assay details: SIRT6 enzymatic activity assay (fluorogenic de-myristoylation of histone H3 peptide-AMC, trypsin-coupled)
# Type: biochemical
# experimental parameters: Table 2; compound 20 uM; percentage of signal increase relative to control wells
measured property: % activity 20 uM (%)

compound	measured property	number
C=C(c1ccc(-c2ccc(N3CCCCC3)nc2)cc1)N(C)C [compound 48]	% activity 20 uM	40
C=C1Cc2cc(C)cc(CC(=O)[C@@H](NS(=C)(=C)c3ccc(C)cc3)[C@H](C)CC)c2C2=C1CCC2 [compound 62]	% activity 20 uM	28
CC[C@H]1O[C@@H](Cc2ccc3c(c2C)CC(=O)C(C)=C3C)[C@H](C)[C@@H](O)[C@H]1C [compound 26]	% activity 20 uM	21
C=S(=O)(C1=CC=C(c2ccc(N3CCCCC3)nn2)C1)N1CCCC(C(=O)OCC)C1 (centres unmarked) [compound 38]	% activity 20 uM	52
Cc1cc(NC(=O)CSc2nnc(-c3sc4ncccc4c3N)n2C)ccc1Cl [compound 24]	% activity 20 uM	77
C=C(C)C1Cc2cc(C(F)(F)F)ccc2N2CCCCC12 (centres unmarked) [compound 59]	% activity 20 uM	89
CCc1nnc(NC(=O)CSc2nc(N)nc(SC)c2C#N)s1 [compound 8]	% activity 20 uM	25
COCCNc1oc2c(c1-c1ccc(C)cc1)c(=O)oc1c(C)cccc12 [compound 30]	% activity 20 uM	149
